B1: 1ZHC (parent)
chain: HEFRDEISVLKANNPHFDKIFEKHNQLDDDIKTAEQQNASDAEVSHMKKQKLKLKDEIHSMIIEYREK

variants of: B1; test: folding stability dG (cDNA display proteolysis); higher = more stable; settings: PBS, room temperature
property-measured: folding stability dG

Answered cases to consult:
- mutation-key: "K23C"
  recorded-measurement: "0.886 kcal/mol"
- mutation-key: "E43A"
  recorded-measurement: "0.759 kcal/mol"
- mutation-key: "L52N"
  recorded-measurement: "0.952 kcal/mol"
- mutation-key: "D29I"
  recorded-measurement: "1.44 kcal/mol"
- mutation-key: "P15G"
  recorded-measurement: "0.048 kcal/mol"

stdin: What does the data say about its folding stability dG? Entry: V44R
stdout: -0.295 kcal/mol

stdin: What does the data say about its folding stability dG? Entry: D5H
stdout: 1.23 kcal/mol
